- target_or_system: full length MPS1 (Homo sapiens (Human))
- Sequence (P33981 whole entry): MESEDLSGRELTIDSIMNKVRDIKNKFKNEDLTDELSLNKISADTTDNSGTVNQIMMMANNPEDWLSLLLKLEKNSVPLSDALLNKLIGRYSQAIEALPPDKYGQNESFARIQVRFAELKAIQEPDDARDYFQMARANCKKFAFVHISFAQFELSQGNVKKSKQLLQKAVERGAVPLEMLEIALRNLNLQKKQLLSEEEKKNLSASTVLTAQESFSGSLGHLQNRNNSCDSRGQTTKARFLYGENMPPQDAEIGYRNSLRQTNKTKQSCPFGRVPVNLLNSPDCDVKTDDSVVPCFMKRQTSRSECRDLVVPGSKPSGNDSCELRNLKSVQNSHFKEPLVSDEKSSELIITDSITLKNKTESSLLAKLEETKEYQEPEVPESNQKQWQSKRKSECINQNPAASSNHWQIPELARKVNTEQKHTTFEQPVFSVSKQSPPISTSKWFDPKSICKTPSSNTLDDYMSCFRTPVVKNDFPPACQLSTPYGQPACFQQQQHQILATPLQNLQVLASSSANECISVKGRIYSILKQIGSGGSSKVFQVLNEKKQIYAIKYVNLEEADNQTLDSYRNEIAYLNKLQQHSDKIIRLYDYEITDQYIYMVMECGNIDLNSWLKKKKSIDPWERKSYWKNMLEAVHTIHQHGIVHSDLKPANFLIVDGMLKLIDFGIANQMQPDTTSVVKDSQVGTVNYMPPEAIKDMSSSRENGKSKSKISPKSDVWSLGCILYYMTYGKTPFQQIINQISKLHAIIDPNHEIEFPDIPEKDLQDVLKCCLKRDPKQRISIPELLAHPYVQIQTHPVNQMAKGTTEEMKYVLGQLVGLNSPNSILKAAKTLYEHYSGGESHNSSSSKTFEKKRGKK
- experiment_notes: Measurement of Inhibition of MPS1 Kinase
- Format: biochemical
- experimental_parameters: full length MPS1 12.5 nM or 3 nM, H236 peptide 5 μM, ATP 10 μM, 60 min at room temperature, Caliper EZ reader II; read-out: MPS1 IC50
reported_metric: IC50 (nM)

Below: 4 molecules and their reported IC50.
• COc1cc(-c2ncco2)ccc1Nc1ncc2cc(C)nc(NCC(C)(C)C)c2n1 [Example 14] = 59
• COc1cc(-c2ncc(C)n2C)ccc1Nc1ncc2cc(C)nc(NCC(C)(C)C)c2n1 [Example 18] = 4
• CCOc1cc(-c2nncn2C)ccc1Nc1ncc2cc(C)nc(N3CCC(OC)C3)c2n1 (centres unmarked) [Example 39] = 3
• CCOc1cc(-c2nncn2C)ccc1Nc1ncc2cc(C)nc(N3CCC(C)(O)C3)c2n1 (centres unmarked) [Example 37] = 3

[a] CCOc1cc(-c2nncn2C)ccc1Nc1ncc2cc(C)nc(N3CC(C)(OCC)C3)c2n1 [Example 61]
[b] CCOc1cc(-c2nncn2C)ccc1Nc1ncc2cc(C)nc(NC3CN(C)C3)c2n1 [Example 58]
[c] Cc1cc2cnc(Nc3ccc(-c4nncn4C)cc3OC(F)F)nc2c(NCC(C)(C)C)n1 [Example 15]
[d] CCOc1cc(-c2nncn2C)ccc1Nc1ncc2cc(C)nc(N3CC(C)(OC)C3)c2n1 [Example 30]
Sort these molecules on IC50 so the largest reading comes first. Order the labels as requested and list them.
b, a, d, c
(b: 518 nM, a: 4 nM, d: 2 nM, c: 1 nM)

---

- target_or_system: UniProt:P33981
- experiment_notes: Measurement of Inhibition of MPS1 Kinase
- Format: biochemical
- experimental_parameters: full length MPS1 12.5 nM or 3 nM, H236 peptide 5 μM, ATP 10 μM, 60 min at room temperature, Caliper EZ reader II; read-out: MPS1 IC50
pIC50: −log10 of the molar value.
reported_metric: pIC50

- COc1cc(-c2cnc(C)n2C)ccc1Nc1ncc2cc(C)nc(N3CC4(CCOCC4)C3)c2n1: 7.92
- Cc1cc2cnc(Nc3ccc(-c4nncn4C)cc3OC(F)F)nc2c(N2CC(C)(C)C2)n1: 7.80
- COc1cc(-c2oc(C)nc2C)ccc1Nc1ncc2cc(C)nc(NCC(C)(C)C)c2n1: 7.37
- CCOc1cc(-c2nncn2C)ccc1Nc1ncc2cc(C)nc(N3CC(C)(O)C3)c2n1: 8.40
- CCOc1cc(-c2nncn2C)ccc1Nc1ncc2cc(C)nc(N3CCC4(CCOC4)C3)c2n1 (stereo not shown): 8.40

[P] CCOc1cc(-c2nncn2C)ccc1Nc1ncc2cc(C)nc(N3CCC(OC)CC3)c2n1
[Q] CCOc1cc(-c2nncn2CC)ccc1Nc1ncc2cc(C)nc(N3CC(C)(C)C3)c2n1
Please indicate which has the smaller reported pIC50: P , or Q . Refer to your chosen entry by its label in the reply.
Q

---

- target_or_system: full length MPS1 (Homo sapiens (Human))
- experiment_notes: Measurement of Inhibition of MPS1 Kinase
- Format: biochemical
- experimental_parameters: full length MPS1 12.5 nM or 3 nM, H236 peptide 5 μM, ATP 10 μM, 60 min at room temperature, Caliper EZ reader II; read-out: MPS1 IC50
reported_metric: IC50 (nM)

* CCOc1cc(-c2nnc(C)n2C)ccc1Nc1ncc2cc(C)nc(NCC(C)(C)C)c2n1 [Example 7] | 4
* CCOc1cc(-c2nncn2C)ccc1Nc1ncc2cc(C)nc(N3CC4CC4C3)c2n1 (stereo not drawn) [Example 50] | 2
* CCOc1cc(-c2nncn2CC)ccc1Nc1ncc2cc(C)nc(N3CC4(CCOCC4)C3)c2n1 [Example 24] | 2
